test: in vivo; conditions: Sprague-Dawley, rat, plasma, po, 30 mg/kg
Experimental endpoint: Tmax (h)
API: value field is a number in h; no unit string.

Ask | Given the entry Cn1cc2c(n1)c(=O)n(-c1cccnc1C1CC1)c1cc(Cl)c(F)cc21 , report its measured Tmax.
Reply | 4

----------
assay: in vivo; conditions: Sprague-Dawley, rat, plasma, po, 30 mg/kg
Experimental endpoint: half-life
Could you write the number and then its unit?

Ask | Given the entry Cn1cc2c(n1)c(=O)n(-c1cccnc1C1CC1)c1cc(Cl)c(F)cc21 , report its measured half-life.
Reply | 11.5 h

----------
test: in vitro; conditions: rat, hepatocytes
Experimental endpoint: half-life (h)
API: value field is a number in h; no unit string.

Ask | Given the entry Cn1cc2c(n1)c(=O)n(-c1cccnc1C1CC1)c1cc(Cl)c(F)cc21 , report its measured half-life.
Reply | 2.5
